Below is a list of entries, each paired with its recorded fraction ligated value.
B1: F1*; the commonest letter at each place (parent)
chain: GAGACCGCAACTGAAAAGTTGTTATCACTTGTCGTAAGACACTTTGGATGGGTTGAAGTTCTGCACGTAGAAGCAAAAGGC

# Variants of: B1
# RUN_DESCRIPTION: fraction ligated after 30 min (ligated reads / total reads); higher = more ligase activity
# STATED_CONDITIONS: with F1*sub RNA substrate (template-directed ligation), 42 °C

VARIANT_NOTATION	fraction ligated
T25C A36G	0.816
G31A T35A	0.823
A36C G46A	0.793
T35C T45C	0.783
